Where do these numbers come from? They come from ChEMBL document CHEMBL4152258.

assay-explanation: Cytotoxicity against African green monkey Vero cells after 72 hrs by Alamar blue assay
Assay type: cell-based
stated-conditions: chlorocebus sabaeus
Label 1.0 when CC50 at 72 h is strictly below 40 µM; at or above that, label 0.0.

These solved cases illustrate the format of a correct answer.
Say whether its CC50 at 72 h is strictly beneath 40 µM. Entry: `CC(C)=CCOc1ccc(C(=O)/C=C/c2cccnc2)c(O)c1`
0.0

Same question, `C#CCOc1ccc(C(=O)/C=C/c2ccc(F)cc2)c(OCC#C)c1` this time
0.0

Same question, `COc1cc(OCC=C(C)C)ccc1C(=O)/C=C/c1ccc([N+](=O)[O-])cc1` this time
0.0

Same question, `C#CCOc1ccc(C(=O)/C=C/c2cccnc2)c(OCC#C)c1` this time
1.0

Now, please, on to the next compound.
Say whether its CC50 at 72 h is strictly beneath 40 µM. Entry: `C#CCOc1ccc(C(=O)/C=C/c2cccnc2)c(OC)c1`
1.0
